All figures here come from patent US20260191965A1.

Tested on: clinical isolates of Mycobacterium tuberculosis
METHOD: microbe, parasite or virus in culture
Type: cell-based
CONDITION_PARAMETERS: Mycobacterium tuberculosis, 168 h, clinical isolate strain 8; air with 5% CO2, 7H9/10% OADC, 7 days
PROPERTY: MIC (µg/mL)
Please reply with the bare figure in µg/mL and do not write the unit itself.

CO[C@H]1/C=C/O[C@@]2(C)Oc3c(C)c(O)c4c(c3C2=O)C2=NC3(CCN(CCn5c([N+](=O)[O-])cnc5C)CC3)NC2=C(NC(=O)/C(C)=C\C=C\[C@H](C)[C@H](O)[C@@H](C)[C@@H](O)[C@@H](C)[C@H](OC(C)=O)[C@@H]1C)C4=O = 2

Query :: Could you tell me which MIC is on file for "NNC(=O)c1ccncc1" ?
Result :: 2.5

###

System: clinical isolates of Mycobacterium tuberculosis
METHOD: microbe, parasite or virus in culture
Assay type: cell-based
CONDITION_PARAMETERS: Mycobacterium tuberculosis, 168 h, clinical isolate strain 9; air with 5% CO2, 7H9/10% OADC, 7 days
Listed here: items and their measured MIC.
Please reply with the bare figure in µg/mL and do not write the unit itself.

CO[C@H]1/C=C/O[C@@]2(C)Oc3c(C)c(O)c4c(c3C2=O)C2=NC3(CCN(CCn5c([N+](=O)[O-])cnc5C)CC3)NC2=C(NC(=O)/C(C)=C\C=C\[C@H](C)[C@H](O)[C@@H](C)[C@@H](O)[C@@H](C)[C@H](OC(C)=O)[C@@H]1C)C4=O = 0.5

For the next question, use this compound.
Query :: State its MIC on clinical isolates of Mycobacterium tuberculosis: "CO[C@H]1/C=C/O[C@@]2(C)Oc3c(C)c(O)c4c(O)c(c(/C=N/N5CCN(C)CC5)c(O)c4c3C2=O)NC(=O)/C(C)=C\C=C\[C@H](C)[C@H](O)[C@@H](C)[C@@H](O)[C@@H](C)[C@H](OC(C)=O)[C@@H]1C"
Result :: 20

###

Listed here: items and their measured MIC.
Tested on: clinical isolates of Mycobacterium tuberculosis
METHOD: microbe, parasite or virus in culture
Assay type: cell-based
CONDITION_PARAMETERS: Mycobacterium tuberculosis, 168 h, clinical isolate strain 2; air with 5% CO2, 7H9/10% OADC, 7 days
Please reply with the bare figure in mg/L and do not write the unit itself.

Query :: Could you tell me which MIC is on file for "CO[C@H]1/C=C/O[C@@]2(C)Oc3c(C)c(O)c4c(c3C2=O)C2=NC3(CCN(CCn5c([N+](=O)[O-])cnc5C)CC3)NC2=C(NC(=O)/C(C)=C\C=C\[C@H](C)[C@H](O)[C@@H](C)[C@@H](O)[C@@H](C)[C@H](OC(C)=O)[C@@H]1C)C4=O" ?
Result :: 0.5

Query :: Follow-up item: "CO[C@H]1/C=C/O[C@@]2(C)Oc3c(C)c(O)c4c(O)c(c(/C=N/N5CCN(C)CC5)c(O)c4c3C2=O)NC(=O)/C(C)=C\C=C\[C@H](C)[C@H](O)[C@@H](C)[C@@H](O)[C@@H](C)[C@H](OC(C)=O)[C@@H]1C"
Result :: 5

Query :: Follow-up item: "NNC(=O)c1ccncc1"
Result :: 2.5

###

System: clinical isolates of Mycobacterium tuberculosis
METHOD: microbe, parasite or virus in culture
Format: cell-based
CONDITION_PARAMETERS: Mycobacterium tuberculosis, 168 h, clinical isolate strain 4; air with 5% CO2, 7H9/10% OADC, 7 days
Listed here: items and their measured MIC.

CO[C@H]1/C=C/O[C@@]2(C)Oc3c(C)c(O)c4c(O)c(c(/C=N/N5CCN(C)CC5)c(O)c4c3C2=O)NC(=O)/C(C)=C\C=C\[C@H](C)[C@H](O)[C@@H](C)[C@@H](O)[C@@H](C)[C@H](OC(C)=O)[C@@H]1C = > 40 µg/mL
CO[C@H]1/C=C/O[C@@]2(C)Oc3c(C)c(O)c4c(c3C2=O)C2=NC3(CCN(CCn5c([N+](=O)[O-])cnc5C)CC3)NC2=C(NC(=O)/C(C)=C\C=C\[C@H](C)[C@H](O)[C@@H](C)[C@@H](O)[C@@H](C)[C@H](OC(C)=O)[C@@H]1C)C4=O = 2 µg/mL
Cc1ncc([N+](=O)[O-])n1CCO = > 32 µg/mL

For the next question, use this compound.
Query :: Could you tell me which MIC is on file for "NNC(=O)c1ccncc1" ?
Result :: > 40 µg/mL
